neutralization IC50 values for the binders below.
# tested on: HIV-1 envelope glycoprotein gp120 of virus 7141 (HIV-1)
# method description: cell-based or functional assay
assay metric: neutralization IC50 (µg/mL)

binder: 3.1.13-1 (antibody, human IgG1, kappa, V domains shown) VH: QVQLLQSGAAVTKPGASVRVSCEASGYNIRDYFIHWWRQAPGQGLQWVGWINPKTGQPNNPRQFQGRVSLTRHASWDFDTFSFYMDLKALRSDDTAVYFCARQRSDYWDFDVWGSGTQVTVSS VL: DIQMTQSPSSLSARVGDRATITCQANGYLNWYQQRRGKAPKLLIYDGSKLERGVPARFSGSRWGQEYILTISSLQPEDVATYFCQVYEFFGPGTRLDLKR
result unit: µg/mL
recorded result: 13.2

binder: 1.1.118-1 (antibody, human IgG1, kappa, V domains shown) VH: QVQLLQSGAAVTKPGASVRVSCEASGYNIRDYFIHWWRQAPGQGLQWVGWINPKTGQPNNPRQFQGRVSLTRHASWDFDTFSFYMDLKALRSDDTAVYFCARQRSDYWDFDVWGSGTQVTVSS VL: DIQMTQSPSSLSASVGDRATITCQANGYLNWYQQRRGKAPKLLIYDGSKLERGVPSRFSGSRWGQEYILTISSLQPEDIATYFCQVYEFFGPGTRLDLKR
result unit: µg/mL
recorded result: 20.2

binder: 2.3.9-1 (antibody, human IgG1, kappa, V domains shown) VH: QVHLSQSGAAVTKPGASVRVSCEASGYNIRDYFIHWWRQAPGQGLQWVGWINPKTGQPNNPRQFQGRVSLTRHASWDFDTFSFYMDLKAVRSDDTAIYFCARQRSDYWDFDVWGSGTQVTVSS VL: DIQMTQSPSSLSARVGDTATITCQANGYLNWYQQRRGKAPKLLIYDGSKLERGVPARFSGRRWGQEYNLTINNLQPEDVATYFCQVYEFFGPGTRLDLKR
result unit: µg/mL
recorded result: 2.56
